Test system: in vivo angiogenesis, blood vessel count
Assay: reduction of blood vessel formation in vivo – HTS, in vivo study (AID 732);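 further: zebrafish embryos dosed at one day post fertilization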
Details: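 tested at 30 µM in the well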
Activity calls are given as the source filed them. How the calls were made is not given here.
Response enum: t (active), f (inactive)

>  <compound>
c1cc(CN2CCCCC2)cc(OCCCNc2nc3ccccc3s2)c1

>  <category>
f

$$$$
>  <compound>
NC(=O)NO

>  <category>
f

$$$$
>  <compound>
COc1ccccc1N1CCN(CCCCNC(=O)c2ccc3ccccc3c2)CC1

>  <category>
f

$$$$
>  <compound>
CC1=C(C(=O)O)N2C(=O)[C@@H](NC(=O)C(N)C3=CCC=CC3)[C@H]2SC1 (some centres undefined)

>  <category>
f

$$$$
>  <compound>
Cc1cccc2c(-c3[nH]c4ccccc4c3N=O)c(O)[nH]c12

>  <category>
t

$$$$

Test call for this compound, please: Oc1ccc2c3c1O[C@H]1c4oc5ccccc5c4C[C@@]4(O)C(C2)N(CC2CC2)CCC314 (some centres undefined)
f

Test call for this compound, please: CC(C)C[C@H]1C(=O)N2CCC[C@H]2[C@]2(O)O[C@](NC(=O)[C@@H]3C=C4c5cccc6[nH]c(Br)c(c56)C[C@H]4N(C)C3)(C(C)C)C(=O)N12
f

Test call for this compound, please: Nc1ccc(N2C(=O)c3ccccc3C2=O)c(Cl)c1
f

Test call for this compound, please: NC[C@H](O)c1ccc(O)c(O)c1
f

Test call for this compound, please: NC(Cc1ccc(N(CCCl)CCCl)cc1)C(=O)O (centres undefined)
f
